experiment_summary: Cytotoxicity against mouse 3T3 cells assessed as viable cells at 1 uM by MTS assay in presence of 10% fetal calf serum
Format: cell-based
condition_details: 3T3 cells (NIH3T3), read-out: Activity
measured_attribute: viability at 1 µM (%)
Output spec: scalar in %, unitless text.

Entry "CC[C@H](C)[C@H](NC(=O)[C@H]([C@@H](C)CC)N(C)C(C)=O)C(=O)N[C@H](C(=O)N[C@@H](CC(C)C)C(=O)[C@@]1(C)CO1)[C@@H](C)O" — recorded viability at 1 µM = 80

---

Test system: Plasmodium falciparum
experiment_summary: Antimicrobial activity against asexual stage of Plasmodium falciparum 3D7 after 24 hrs
Assay type: functional, organism-based
condition_details: 3D7, 24 h
measured_attribute: pIC50
Here pIC50 is given on a logarithmic scale as minus log10 of the concentration in mol/L.

Tested on Plasmodium falciparum: "CC[C@H](C)[C@H](NC(=O)[C@H]([C@@H](C)CC)N(C)C(C)=O)C(=O)N[C@H](C(=O)N[C@@H](CC(C)C)C(=O)[C@@]1(C)CO1)[C@@H](C)O" . Observed pIC50: 7.39

---

experiment_summary: Cytotoxicity against human A549 cells assessed as viable cells at 1 uM by MTS assay in presence of 10% fetal calf serum
Assay type: cell-based
condition_details: read-out: Activity
measured_attribute: viability at 1 µM (%)
Output spec: scalar in %, unitless text.

Entry CC[C@H](C)[C@H](NC(=O)[C@H]([C@@H](C)CC)N(C)C(C)=O)C(=O)N[C@H](C(=O)N[C@@H](CC(C)C)C(=O)[C@@]1(C)CO1)[C@@H](C)O [EPOXOMYCIN] — recorded viability at 1 µM = 80
